Values were extracted from patent US20070048315A1.

Molecular target: T1, non-tagged, non-linked native human IL-23p19/p40 coexpressed in SF9 cells (eBioscience CAT No. 34-8239) (human, UniProt P29460 23-328)
T1 sequence 1: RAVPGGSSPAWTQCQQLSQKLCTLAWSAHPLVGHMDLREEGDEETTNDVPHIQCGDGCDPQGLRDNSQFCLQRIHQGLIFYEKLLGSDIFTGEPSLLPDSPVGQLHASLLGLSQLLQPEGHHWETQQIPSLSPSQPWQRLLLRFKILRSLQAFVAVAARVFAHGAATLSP
T1 sequence 2: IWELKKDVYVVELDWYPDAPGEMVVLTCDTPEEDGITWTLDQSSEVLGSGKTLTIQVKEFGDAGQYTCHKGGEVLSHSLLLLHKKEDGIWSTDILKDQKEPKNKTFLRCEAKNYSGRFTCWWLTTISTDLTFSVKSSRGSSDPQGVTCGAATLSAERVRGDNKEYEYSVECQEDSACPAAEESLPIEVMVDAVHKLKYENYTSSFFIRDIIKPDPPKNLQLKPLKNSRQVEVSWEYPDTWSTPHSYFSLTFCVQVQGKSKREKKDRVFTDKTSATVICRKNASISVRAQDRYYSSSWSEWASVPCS
Assay: cell-based or functional assay
Assay Endpoint: IC50 for blocking of Ba/F3 cell proliferation (nM)
Number in nM, nothing else.

These solved cases illustrate the format of a correct answer.
INSERT INTO assay_data (binder, readout_unit, result) VALUES
  ('mouse anti-human IL-23p19 antibody 3D7 (antibody, V domains shown) VH: QVQLQQSGPELVKPGASVKISCKASGYSFTSYYIHWVKQRPGQGLEWIGWIFPGSGNTKYNEKFKGKATLTADTSSTTAYMQLSSLTSEASAVYFCAREGLHYFGLYAMDYWGHGTSVTVSS VL: DIQMTQTTSSLSASLGDRVTISCSASQGISNYLNWFQQKPDGTVKLLIYYTSSLHSGVPSRFSGSGSGTDYSLTISNLEPEDIATYYCQQYSKLPYTFGGGTKLEIKR', 'nM', 2),
  ('mouse anti-human IL-23p19 antibody 33B12 (antibody, V domains shown) VH: QVQLQQSGAELARPGASVKLSCKASGYTFTSYSLKWVKQRTGQGLEWIGEIHPRSGNTHYNEKFKGKATLTADKSSSTAYMDLRSLTSEDSAVYFCATNWDLGYWGQGTTITVSS VL: DIVLTQSPATLSVTPGDRVSLSCRASQSISDYLHWFQQRSHESPRLLIKYASQSISGIPSRFSGSGSGSDFTLSINSVEPEDVGVYYCQNGHSFPFTFGSGTKLEIKR', 'nM', 57);

Now look at this one.
Using the record for humanized anti-human IL-23p19 antibody hum6H12 (antibody, human IgG1, kappa, V domains shown) VH: QVQLVQSGAEVKKPGASVKVSCKASGYTFNRYLIHWVRQAPGQGLEWMGYINPNNAGTNYNEKFKGRVTMTTDTSTSTAYMELRSLRSDDTAVYYCARNWDQAYWGQGTLVTVSS VL: DIQMTQSPSSLSASVGDRVTITCRASQSISDYLHWYQQKPGKAPKLLIYYTSQSISGVPSRFSGSGSGTDFTLTISSLQPEDFATYYCQNGHSFPFTFGQGTKVEIKR , report its IC50 for blocking of Ba/F3 cell proliferation.
3200
